// reported pIC50 for each item listed
Tested on: MCF-7 cells
Assay: MTT cell viability, MCF-7
Assay type: cell-based
Settings: Homo sapiens, MCF7, breast cancer cell line, 72 h
pIC50: −log10 of the molar value.
MEASURE: pIC50

>  <COMPOUND>
COc1ccccc1NC(=O)NC(=O)CSC(=S)N1CCCC1 [MI-929]

>  <MEASURE>
pIC50

>  <LIMIT SIGN>
<

>  <ASSAY RESULT>
4.30

$$$$
>  <COMPOUND>
C#CCSc1nc(NNC(N)=S)c(C#N)c(-c2ccc3oc(=O)ccc3c2)n1 [MI-743]

>  <MEASURE>
pIC50

>  <LIMIT SIGN>
=

>  <ASSAY RESULT>
5.01

$$$$

Hey, just so you know, these numbers are from paper PMC6547740.
